Numbers sourced from ChEMBL document CHEMBL1201862.

System: A549
Assay: NCI tumour cell line growth inhibition, 48 h
Calls of active or inactive are those of the source. Rule as the data show it: active = GI50 up to about 1.1 µM and inactive = higher.
In this exercise, the only acceptable responses are active, inactive

input: Test call for this compound, please: COC(=O)C1(C(=O)OC)N=C(C)OC1c1ccccn1 (stereo not drawn)
output: inactive

input: Test call for this compound, please: O=S(=O)(O)c1ccc(NN(c2c(O)ccc3ccccc23)S(=O)(=O)O)cc1
output: inactive

input: Test call for this compound, please: [O-]c1c2c(nn1-c1ccc(Cl)cc1)c1ccccc1c[n+]2Cc1ccccc1
output: inactive

input: Test call for this compound, please: CC[C@@]1(O)C(=O)OCc2c1cc1n(c2=O)Cc2c-1nc1ccccc1c2/C=N\c1ccc(N[C@@H]2c3cc4c(cc3[C@@H](c3cc(OC)c(O)c(OC)c3)[C@H]3C(=O)OC[C@@H]32)OCO4)cc1
output: active

input: Test call for this compound, please: COc1ccc(CN2C[C@H]3[C@@H](CC(=O)O[C@H]3C)CC2=O)cc1
output: inactive

input: Test call for this compound, please: CCC1=NC(C(F)(F)F)(C(F)(F)F)N=C(/N=C(/N)N(C)C(C(C)C)P(=O)(OC(C)C)OC(C)C)O1 (stereo not drawn)
output: inactive

input: Test call for this compound, please: CCOC(=O)C1(C(=O)OCC)[C@@H](c2ccccc2)C2=NO[C@@H]3CCC[C@H]1[C@H]23
output: inactive

input: Test call for this compound, please: CN(C(=O)C1CCCCCC1=O)c1ccccc1Cl (stereo not drawn)
output: inactive

###

Exercise: state measured GI50 for each of the molecules provided.
System: EKVX
Assay: NCI tumour cell line growth inhibition, 48 h
The source made the active and inactive calls. No stated cut-off is given here; in the data, active = GI50 up to about 1.1 µM and inactive = higher.

input: Input CC(=O)OC(OC(C)=O)c1ccc2ccc3cccc4ccc1c2c34 , output reported GI50.
output: 27.4 µM (inactive)

input: Input O=C(N/N=C/c1ccc([N+](=O)[O-])o1)c1ccc(C(=O)N/N=C/c2ccc([N+](=O)[O-])o2)cc1 , output reported GI50.
output: > 100 µM (inactive)

input: Input CO/N=C(\C(=O)O/C(=N/C1CCCCC1)NC1CCCCC1)c1csc(NC(c2ccccc2)(c2ccccc2)c2ccccc2)n1 , output reported GI50.
output: > 10 µM (inactive)

input: Input CC1C[C@]2(C)C(=S)Nc3ccccc3[C@@H]2Nc2ccccc21 (stereo not given in full) , output reported GI50.
output: 22.3 µM (inactive)

input: Input O=C1Nc2ccccc2/C1=C1/Nc2ccccc2/C1=N/OCCOCCO , output reported GI50.
output: 2.67 µM (inactive)

###

Test system: MDA-MB-435
Experiment: NCI tumour cell line growth inhibition, 48 h
Active and inactive are the calls of the source. Cut-off read from the data, not from the text of the source: active = GI50 up to about 1.1 µM and inactive = higher.
metricName: GI50

input: Param request: GI50 | system MDA-MB-435 | item CC(=O)NC1C(OCc2ccccc2)OC(CO)C(O)C1OCC(=O)N[C@@H](C)C(=O)N[C@H](CCC(=O)NCCNCCNc1c2ccccc2nc2cccc([N+](=O)[O-])c12)C(N)=O (stereo partly drawn)
output: 29.6 µM (inactive)

input: Param request: GI50 | system MDA-MB-435 | item Cc1ccc2ccc3ccc(C)nc3c2n1
output: > 100 µM (inactive)

input: Param request: GI50 | system MDA-MB-435 | item C=C(C)COC1CCCCO1 (stereo not drawn)
output: > 100 µM (inactive)

input: Param request: GI50 | system MDA-MB-435 | item Cc1[nH]c2ncn(N)c(=N)c2c1Cc1ccccc1
output: 34.6 µM (inactive)

input: Param request: GI50 | system MDA-MB-435 | item COC(=O)C1(C(=O)OC)N=C(C)OC1c1ccccn1 (stereo not drawn)
output: > 100 µM (inactive)

input: Param request: GI50 | system MDA-MB-435 | item Nc1ccc(Oc2ccc(C3(c4ccc(Oc5ccc(N)cc5)cc4)C4CC5CC(C4)CC3C5)cc2)cc1
output: 8.05 µM (inactive)

input: Param request: GI50 | system MDA-MB-435 | item Nc1nc(NCC2(CO)CCC2)cc(=O)[nH]1
output: > 100 µM (inactive)

input: Param request: GI50 | system MDA-MB-435 | item Nc1ccccc1.O=P(O)(O)c1ccccc1
output: > 100 µM (inactive)
